The following compounds are shown together with reported activity change values.
assay-summary: qHTS for Inhibitors of Inflammasome Signaling: IL-1-beta AlphaLISA Primary Screen; also: % is scaled to controls: 0 for no effect and ±100 for the full control effect
condition-label: THP-1 LPS/ATP IL-1B secretion, 16 h; at 57.5 µM, hits give low values
The campaign covered roughly 360,000 compounds. About 17,000 (4.7%) were called active. Not shown: some 5% with an inconclusive outcome. What follows is part of a selection rich in actives, with near analogues and random picks from the rest.

>>> result("COc1cc(/C=C/C(=O)OCC(=O)c2ccccc2)cc(OC)c1OC")
"18.6% (inactive)"
>>> result("COc1ccc2occ(C(=O)c3ccc(N=C(C)N(C)C)cc3)c2c1")
"-57% (active)"

Looking up "COc1ccc(-n2c(-c3ccc(Cl)cc3)n[nH]c2=S)c(OC)c1" , I found its activity change recorded as -15.4% (inactive)

Looking up "COc1ccc(/C=C/C2=CC(C)(C)NC(=S)N2)c(OC)c1" , I found its activity change recorded as -87.3% (active)

Looking up "COc1cc(/C=C/c2ccc(/C=C/c3cc(OC)c(OC)c(OC)c3)cc2)cc(OC)c1OC" , I found its activity change recorded as 94.5% (inactive)

Looking up "CCOC(=O)CSc1nncc2ccc(OC)c(OC)c12" , I found its activity change recorded as -8.55% (inactive)

---

assay-summary: qHTS for Inhibitors of Inflammasome Signaling: IL-1-beta AlphaLISA Primary Screen
condition-label: THP-1 LPS/ATP IL-1B secretion, 16 h; at 57.5 µM
The whole screen tested about 360,000 compounds, of which about 17,000 (4.7%) were called active. Inconclusive results (about 5%) are left out. Rule as the data show it: active = activity change below about -50%; inconclusive = mostly about -30% to -49%; inactive = weaker than that. Shown is part of a subset that was picked to be rich in actives.
Use one of these outcomes when replying: active, inactive

Solved cases below.
>>> category_label("Cc1cc(NC(=O)c2cc3ccccc3o2)no1")
"inactive"
>>> category_label("O=C(Nc1ccc(N2CCCC2=O)cc1)c1cncc(Br)c1")
"inactive"
>>> category_label("O=C1OCC2=C1C(c1ccc(Cl)cc1)c1cc3c(cc1O2)OCO3 (stereo not given)")
"inactive"
>>> category_label("CC(=O)Nc1ccc(C(=O)Nc2cc(S(=O)(=O)N3CCOCC3)ccc2N2CCOCC2)cc1")
"inactive"

Attention now shifts to the item below.
What did this assay record as the result for CCCNC(=O)C1(C)CCN(Cc2csc(-c3ccc(Cl)cc3)n2)C1 (stereo not given) ?
inactive

---

assay-summary: qHTS for Inhibitors of Inflammasome Signaling: IL-1-beta AlphaLISA Primary Screen
condition-label: THP-1 LPS/ATP IL-1B secretion, 16 h; at 57.5 µM, hits give low values
Source text: Inflammasomes are a set of intracellular multi-protein complexes that enable autocatalytic activation of inflammatory caspases and drive the innate immune response to counter harmful agents. […] A qHTS assay, based on AlphaLISA technology, was developed to screen the Molecular Libraries Small Molecule Repository (MLSMR) to look for novel inflammasome inhibitors. The assay detects IL-1B using AlphaLISA anti-IL-1B acceptor and donor beads. […]
About 17,000 (4.7%) of roughly 360,000 compounds were called active. Another 5% or so got no clear call; they are omitted. The sample as a whole holds a higher share of actives than the screen did.
endpoint-label: activity change (%)
Entry rule: numbers only, all in %.

Looking up "O=C1CCN(CCCc2ccccc2)CCN1CCO" , I found its activity change recorded as -16.8

Looking up "C=CCC1(C(=O)N(C)Cc2ccccc2)CCN(C(=O)OC(C)(C)C)CC1" , I found its activity change recorded as -21.2

Looking up CC(C(=O)NCCc1ccc(S(N)(=O)=O)cc1)N1C(=O)CC(C)(C)Sc2ccccc21 (stereo unspecified) , I found its activity change recorded as 25.8

---

assay-summary: qHTS for Inhibitors of Inflammasome Signaling: IL-1-beta AlphaLISA Primary Screen
condition-label: THP-1 LPS/ATP IL-1B secretion, 16 h; at 57.5 µM, hits give low values
Screen size: about 360,000 compounds; about 17,000 (4.7%) were called active. Another 5% or so got no clear call; they are omitted. The full list was thinned out, with actives kept by preference.
The following compounds are shown together with reported activity change values.
Entry rule: numbers only, all in %.

Example cases with answers are listed next.
>>> result_number("CCCc1nc2sc3c(c2c(=O)n1NC(=O)CCCl)CCCC3")
-96.6
>>> result_number("COc1ccc(S(=O)(=O)N2CCCCC2c2cc(C(=O)NCc3ccc(F)cc3)no2)cc1 (centres undefined)")
-1.6
>>> result_number("Cn1c(NN)nc2sc3c(c2c1=O)CCC3")
26.1
>>> result_number("CCCSC(=S)NC1CCS(=O)(=O)C1 (centres undefined)")
-105
>>> result_number("CC(C)C(=O)NC(NC(=S)NC1CCS(=O)(=O)C1)C(Cl)(Cl)Cl (centres undefined)")
15.4

Looking up "O=C(O)c1ccc(F)c(S(=O)(=O)Nc2ccccc2)c1" , I found its activity change recorded as 0

Looking up "CC1(C)C(=O)Nc2ccccc2N1C(=O)COC(=O)Cn1cnc2ccccc2c1=O" , I found its activity change recorded as 7.25

Looking up "COC(=O)c1ccccc1NC(=O)Cc1ccccc1OC" , I found its activity change recorded as 7.67

Looking up "CN(c1ccc(O)cc1)c1nc(-c2cccnc2)cs1" , I found its activity change recorded as 40.3

Looking up "Oc1ccccc1N1CCN(c2ncnc3sc(-c4ccccc4)cc23)CC1" , I found its activity change recorded as -28.1

Looking up "CC(=O)N1CCN(Cc2cc(=O)oc3cc(C)ccc23)CC1" , I found its activity change recorded as 19.5

---

assay-summary: qHTS for Inhibitors of Inflammasome Signaling: IL-1-beta AlphaLISA Primary Screen
condition-label: THP-1 LPS/ATP IL-1B secretion, 16 h; at 57.5 µM, hits give low values
The campaign covered roughly 360,000 compounds. About 17,000 (4.7%) were called active. About 5% were inconclusive and are not listed. Shown is part of a subset that was picked to be rich in actives.
So basically: is activity change under -10%? Then Criterion met. Not under? Then Criterion not met.

Solved cases below.
>>> category_label("COC(C[C@@H]1O[C@@H]1C(=O)[C@H](C)OCc1ccccc1)OC")
"Criterion not met"
>>> category_label("O=C(O)c1ccccc1/C=N/Nc1ccc(S(=O)(=O)Nc2ccc(Cl)cc2)cc1[N+](=O)[O-]")
"Criterion not met"
>>> category_label("CN(CCc1ccccc1)C(=O)c1cccc(NC(=O)Cc2cccc(NC(=O)C3CCCN(C(=O)C4CCC4)C3)c2)c1 (centres undefined)")
"Criterion met"
>>> category_label("Cc1nc2ccccc2nc(C)c1=NOCc1ccc(Cl)cc1Cl")
"Criterion not met"
>>> category_label("COc1ccc(S(=O)(=O)N(C)CC(=O)NCCCN2CCOCC2)cc1Cl")
"Criterion not met"
>>> category_label("O=C(O)c1ccccc1N=N/C(=N/Nc1cc(S(=O)(=O)O)ccc1O)c1ccccc1")
"Criterion met"
>>> category_label("C=CCOc1ccc(Cl)cc1CNCCCN1CCOCC1")
"Criterion met"
>>> category_label("C(#CCN1CCOCC1)CCCN1CCOCC1")
"Criterion not met"
>>> category_label("Cc1ccc(O)c(CNc2nc3ccccc3[nH]2)c1")
"Criterion not met"
>>> category_label("CCCCN1C(=O)C(CC(=O)NCc2cccs2)CC(C(=O)N2CCCCCC2)=C1C (centres undefined)")
"Criterion not met"

Could you please tell me whether activity change recorded for "N=c1oc2ccccc2cc1C(=O)NCc1ccccc1" is less than -10%?
Criterion met

Could you please tell me whether activity change recorded for "O=C1CCC(=O)N(O)CCCCCNC(=O)CCC(=O)N(O)CCCCCNC(=O)CCC(=O)N(O)CCCCCN1" is less than -10%?
Criterion not met

Could you please tell me whether activity change recorded for "CN(CC(=O)O)C(=O)c1ccccc1" is less than -10%?
Criterion not met

Could you please tell me whether activity change recorded for CC(=O)c1ccc(NC(=O)C(C)NCc2ccc(Cl)cc2)cc1 (centres undefined) is less than -10%?
Criterion met

Could you please tell me whether activity change recorded for Cc1cc(C(=O)N2CCCC2(C)C(=O)O)c(C)o1 (centres undefined) is less than -10%?
Criterion met

Could you please tell me whether activity change recorded for "COc1ccc(Oc2cn[nH]c2-c2ccc(OC)cc2O)cc1" is less than -10%?
Criterion met

Could you please tell me whether activity change recorded for "CCOc1ccc(S(=O)(=O)N2CCN(C(=O)c3oc4ccccc4c3C)CC2)cc1" is less than -10%?
Criterion met

---

assay-summary: qHTS for Inhibitors of Inflammasome Signaling: IL-1-beta AlphaLISA Primary Screen
condition-label: THP-1 LPS/ATP IL-1B secretion, 16 h; at 57.5 µM, hits give low values
Hit rate of the full screen: of about 360,000 compounds, about 17,000 (4.7%) were called active. About 5% were inconclusive and are not listed. What follows is part of a selection rich in actives, with near analogues and random picks from the rest.
endpoint-label: activity change (%)
Entry rule: numbers only, all in %.

Example cases with answers are listed next.
>>> result_number("C/C(=N\\NC(=O)Cc1ccc(Cl)cc1)c1ccccn1")
-103
>>> result_number("COc1cc(CCC(=O)N2CCN(c3ccccc3Cl)CC2)cc(OC)c1OC")
7.36
>>> result_number("NC(=O)NC(CC(=O)NNC(=O)c1ccccn1)c1ccc(Cl)cc1 (stereo unspecified)")
99.7
>>> result_number("O=C(NCCC1=CCCCC1)C1CCN(Cc2cnn(-c3ccccc3)c2-n2cccc2)CC1")
-64.8
>>> result_number("Cc1cccc(C)c1NC(=S)N1CCCCCC1")
5.87

Looking up "CNC(=S)N1CCN(c2ccccn2)CC1" , I found its activity change recorded as -3.93

Looking up "COc1ccc(/C(C)=N\NC(=O)c2ccc(-c3ccccc3)cc2)c(F)c1" , I found its activity change recorded as 7.94

Looking up "O[C@H]1CN(Cc2cccs2)[C@@H](c2ccc(Cl)cc2)C[C@@H]1n1cc(C2CC2)nn1" , I found its activity change recorded as 30.3

Looking up "Cc1ccc(S(=O)(=O)N2CCC(C(=O)NCCC3=CCCCC3)CC2)cc1C" , I found its activity change recorded as -2.64

Looking up "CC(=NNC(=S)N1CCCCCC1)c1ccccn1" , I found its activity change recorded as -106

Looking up "COc1ccc(C(C)=O)cc1COc1ccc(Cl)c(C)c1" , I found its activity change recorded as -8.14
